ASSAYED_TARGET: recombinant BACE2 protein (Homo sapiens)
Construct: recombinant BACE2 protein in a final concentration of 0.4 μg/ml
Sequence (Q9Y5Z0 63-518): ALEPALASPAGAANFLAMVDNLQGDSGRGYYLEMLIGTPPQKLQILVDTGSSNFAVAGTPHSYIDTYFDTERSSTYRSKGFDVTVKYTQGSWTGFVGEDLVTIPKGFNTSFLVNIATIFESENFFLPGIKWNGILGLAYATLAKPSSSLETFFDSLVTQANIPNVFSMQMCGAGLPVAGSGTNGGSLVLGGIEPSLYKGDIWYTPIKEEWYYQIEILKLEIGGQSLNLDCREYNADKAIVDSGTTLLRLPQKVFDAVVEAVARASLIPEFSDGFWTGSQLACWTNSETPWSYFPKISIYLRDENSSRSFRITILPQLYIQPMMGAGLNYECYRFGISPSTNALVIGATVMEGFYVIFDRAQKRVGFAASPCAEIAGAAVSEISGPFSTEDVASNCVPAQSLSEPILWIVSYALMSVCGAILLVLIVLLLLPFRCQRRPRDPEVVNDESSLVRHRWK
MEASUREMENT_DESCRIPTION: BACE2 biochemical FRET based assay
MEASUREMENT_CONTEXT: BACE2, 450 minutes at room temperature, pH 5.0; read-out: Biochemical FRET based assay pIC50 (converted)
MEASUREMENT_KIND: IC50 (nM)
One number for each entry, in nM.

Here are 5 compounds together with their reported answers.
Summary for this compound, CC(C)S(=O)(=O)C1(C)CCC(CF)(c2cc(NC(=O)c3ccc(F)cn3)ccc2F)N=C1N (single isomer, unassigned) [Compound 33] : IC50 is 3.55

Summary for this compound, CC1(S(C)(=O)=O)CCC(CF)(c2cc(NC(=O)c3ncc(OC(F)F)cn3)ccc2F)N=C1N (stereo not shown) : IC50 is 28.2

Summary for this compound, "C[C@]1(S(C)(=O)=O)CC[C@@](CF)(c2cc(NC(=O)c3ccc(F)cn3)ccc2F)N=C1N" : IC50 is 302

Summary for this compound, CCOc1cnc(C(=O)Nc2ccc(F)c(C3(CF)CCC(C)(S(C)(=O)=O)C(N)=N3)c2)cn1 (stereo not shown) : IC50 is 32.4

Summary for this compound, CC1(S(C)(=O)=O)CCC(CF)(c2cc(NC(=O)c3ncc(Cl)cn3)ccc2F)N=C1N (stereo not shown) : IC50 is 3.39

# next compound below
Summary for this compound, CO[C@@H]1C[C@@](C)(S(C)(=O)=O)C(N)=N[C@]1(C)c1cc(NC(=O)c2cnc(OCF)cn2)ccc1F [Compound 48a] : IC50 is 447
